Here's a roundup of IC50 values tested on Histone deacetylase 4 (Homo sapiens), taken from various published works.
Give the quantity in µM, number only.

smiles_text	target_desc	result_number
Clc1ccc(C=NNc2nc3ccccc3nc2Cl)cc1	Histone deacetylase 4 (Homo sapiens)	1.39
CCn1c(N)c(C(c2ccc(C)cc2)c2c(N)n(CC)c(=S)[nH]c2=O)c(=O)[nH]c1=S	Histone deacetylase 4 (Homo sapiens)	18
COc1cc(/C=C/C(=O)c2ccc(OCCCCCCC(=O)NO)cc2)cc(OC)c1OC	Histone deacetylase 4 (Homo sapiens)	8.72

Prompt line: Looking for the measured IC50 of O=C(/C=C/c1ccc(O)c(O)c1)CCCc1ccccc1 , can you help?
Response line: 35

Prompt line: Looking for the measured IC50 of O=C(NO)c1ccc(CSc2nc3ccccc3c(=O)n2-c2ccccc2F)cc1 , can you help?
Response line: 8.4

Prompt line: Looking for the measured IC50 of CCCn1c(N)c(C(c2ccccc2)c2c(N)n(CCC)c(=O)[nH]c2=O)c(=O)[nH]c1=O , can you help?
Response line: 19.5

Prompt line: Looking for the measured IC50 of COc1nc2ccccc2nc1NN=Cc1ccccc1O , can you help?
Response line: 3.15
